Quick list: (IC50 CDK12 high ATP) to (Degradation DC50 CDK12) ratio per entry.
# target_under_test: CDK12 (nuclear staining in CAL-120 cells) (Homo sapiens)
# Construct: endogenous in cells; host or cells: CAL-120 human breast cancer cells (DSMZ ACC 459)
# procedure_details: CDK12 nuclear protein level: immunofluorescence/high content analysis (CAL-120)
# Format: cell-based
# condition_info: ratio of IC50 CDK12 high ATP kinase assay to DC50 CDK12 degradation (IF, CAL-120)
Just the number, please, no unit attached.

- compound: "CN(CC(C)(C)O)c1nc(NCc2nc3c(F)cccc3[nH]2)n2ncc(C3CC3)c2n1 [Example 295]"
  target_under_test: "CDK12 (nuclear staining in CAL-120 cells) (Homo sapiens)"
  numeric_result: 235
- compound: "Fc1cccc2[nH]c(CNc3nc(N4C[C@H]5CC[C@@H](C4)N5)nc4c(C5CC5)cnn34)nc12 [Example 296]"
  target_under_test: "CDK12 (nuclear staining in CAL-120 cells) (Homo sapiens)"
  numeric_result: 971
- compound: "Fc1cc2nc(CNc3nc(N4CCOCC4)nc4c(C5CC5)cnn34)[nH]c2cc1Cl [Example 307]"
  target_under_test: "CDK12 (nuclear staining in CAL-120 cells) (Homo sapiens)"
  numeric_result: 190

Would you kindly share the measured (IC50 CDK12 high ATP) to (Degradation DC50 CDK12) ratio for Clc1cccc(-c2nnc(CNc3nc(N4CCOCC4)nc4c(Br)cnn34)[nH]2)c1 [Example 51] ?
222

Any idea what (IC50 CDK12 high ATP) to (Degradation DC50 CDK12) ratio was measured for Fc1ccc2[nH]c(CNc3nc(N4CCOCC4)nc4c(Br)cnn34)nc2c1F [Example 25] ?
1084

Field request: (IC50 CDK12 high ATP) to (Degradation DC50 CDK12) ratio | item: CCc1cnn2c(NCc3nc4c(F)c(F)ccc4[nH]3)nc(N3CCN(C)CC3)nc12.O=CO [Example 435]
9674

// lookup (IC50 CDK12 high ATP) to (Degradation DC50 CDK12) ratio for Brc1cnn2c(NCc3nnc(-c4ccccn4)[nH]3)nc(N3CCOCC3)nc12 [Example 54]
150

Value lookup for (IC50 CDK12 high ATP) to (Degradation DC50 CDK12) ratio; key = Clc1cc2nc(CNc3nc(N4CC5CCC(C4)N5)nc4c(Br)cnn34)[nH]c2cc1Cl [Example 334]
60

Fill in the blank: the reported (IC50 CDK12 high ATP) to (Degradation DC50 CDK12) ratio of CC(C)c1cnn2c(NCc3ncc(-c4ccccc4)[nH]3)nc(N(C)CC(C)(C)O)nc12 [Example 35] is ____.
81

---

# target_under_test: CDK12 (nuclear staining in CAL-120 cells) (Homo sapiens, UniProt Q9NYV4)
# Construct: endogenous in cells; host or cells: CAL-120 human breast cancer cells (DSMZ ACC 459)
# Sequence (Q9NYV4 whole entry): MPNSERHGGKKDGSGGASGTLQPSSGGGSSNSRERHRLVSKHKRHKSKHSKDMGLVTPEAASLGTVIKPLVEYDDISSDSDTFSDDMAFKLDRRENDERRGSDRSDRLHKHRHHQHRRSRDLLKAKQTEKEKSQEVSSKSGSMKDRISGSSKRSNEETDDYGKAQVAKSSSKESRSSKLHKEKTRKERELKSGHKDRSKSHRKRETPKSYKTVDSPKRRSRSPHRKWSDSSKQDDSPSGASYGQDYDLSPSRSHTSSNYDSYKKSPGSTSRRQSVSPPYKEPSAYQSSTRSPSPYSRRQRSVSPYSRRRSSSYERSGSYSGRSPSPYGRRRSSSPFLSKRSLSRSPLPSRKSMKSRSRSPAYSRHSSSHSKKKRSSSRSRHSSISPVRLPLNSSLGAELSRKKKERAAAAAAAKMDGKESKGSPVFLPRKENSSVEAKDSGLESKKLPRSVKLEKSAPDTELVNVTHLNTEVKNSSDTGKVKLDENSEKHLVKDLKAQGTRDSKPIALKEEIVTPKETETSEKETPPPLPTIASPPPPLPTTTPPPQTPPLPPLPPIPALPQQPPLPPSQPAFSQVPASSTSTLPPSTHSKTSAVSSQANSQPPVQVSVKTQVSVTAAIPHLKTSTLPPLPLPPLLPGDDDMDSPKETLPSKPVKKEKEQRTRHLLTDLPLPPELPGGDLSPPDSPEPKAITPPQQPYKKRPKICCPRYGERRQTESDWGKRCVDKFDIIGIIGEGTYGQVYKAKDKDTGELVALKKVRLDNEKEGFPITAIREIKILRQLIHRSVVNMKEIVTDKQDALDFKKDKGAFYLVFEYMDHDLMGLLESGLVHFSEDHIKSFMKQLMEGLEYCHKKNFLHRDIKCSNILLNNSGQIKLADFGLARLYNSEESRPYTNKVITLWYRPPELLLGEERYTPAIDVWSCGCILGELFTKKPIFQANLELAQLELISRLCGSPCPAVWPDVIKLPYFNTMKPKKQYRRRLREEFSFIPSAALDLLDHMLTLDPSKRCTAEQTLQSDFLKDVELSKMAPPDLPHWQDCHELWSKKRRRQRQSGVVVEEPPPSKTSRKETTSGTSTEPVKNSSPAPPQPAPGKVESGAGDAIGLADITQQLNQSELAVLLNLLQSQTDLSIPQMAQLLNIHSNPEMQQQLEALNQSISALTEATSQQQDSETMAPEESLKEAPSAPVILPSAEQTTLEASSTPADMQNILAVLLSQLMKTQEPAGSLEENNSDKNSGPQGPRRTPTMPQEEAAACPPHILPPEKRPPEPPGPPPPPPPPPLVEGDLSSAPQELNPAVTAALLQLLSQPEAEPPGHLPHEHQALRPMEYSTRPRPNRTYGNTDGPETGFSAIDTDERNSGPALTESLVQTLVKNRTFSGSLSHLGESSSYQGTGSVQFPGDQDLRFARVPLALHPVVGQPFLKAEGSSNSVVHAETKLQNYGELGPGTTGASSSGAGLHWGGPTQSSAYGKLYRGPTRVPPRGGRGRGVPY
# Sequence (O75909 whole entry partner): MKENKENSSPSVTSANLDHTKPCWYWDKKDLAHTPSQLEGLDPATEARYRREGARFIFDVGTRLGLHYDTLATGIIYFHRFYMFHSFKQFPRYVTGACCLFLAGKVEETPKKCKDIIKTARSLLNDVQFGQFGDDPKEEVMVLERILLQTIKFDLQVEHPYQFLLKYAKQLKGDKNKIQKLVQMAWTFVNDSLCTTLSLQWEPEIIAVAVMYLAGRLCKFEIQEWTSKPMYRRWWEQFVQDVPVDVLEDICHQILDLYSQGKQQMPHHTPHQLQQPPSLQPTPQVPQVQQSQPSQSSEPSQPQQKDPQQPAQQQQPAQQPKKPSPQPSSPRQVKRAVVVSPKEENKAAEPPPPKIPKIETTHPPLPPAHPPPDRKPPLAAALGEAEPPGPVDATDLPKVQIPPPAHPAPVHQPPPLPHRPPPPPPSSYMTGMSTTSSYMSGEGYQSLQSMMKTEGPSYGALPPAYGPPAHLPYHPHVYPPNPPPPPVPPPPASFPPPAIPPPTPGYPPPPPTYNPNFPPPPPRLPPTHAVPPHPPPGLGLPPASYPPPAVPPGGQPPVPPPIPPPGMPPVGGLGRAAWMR
# procedure_details: CDK12 nuclear protein level: immunofluorescence/high content analysis (CAL-120)
# Type: cell-based
# condition_info: ratio of IC50 CDK12 high ATP kinase assay to DC50 CDK12 degradation (IF, CAL-120)
# Description: In the context of the present invention, the term “DC50 CDK12” refers to the DC50 values obtained according to the assay described in this section (7) herein below, i.e. the DC50 values for the degradation of CDK12. Plates are then incubated for 24 h at 37° C. in an humidified incubator and fixed with 4% PFA for 10 min. […] Nuclear and cytoplasmic intensity as well as the nuclear/cytoplasmic intensity ratio is determined by automated image analysis using custom generated scripts (MetaXpress). […]
parameter: (IC50 CDK12 high ATP) to (Degradation DC50 CDK12) ratio
In your answer, state the number alone without any accompanying words.

Recorded (IC50 CDK12 high ATP) to (Degradation DC50 CDK12) ratio for CC1(C)CN(c2nc(NCc3nnc(-c4ccccc4)[nH]3)n3ncc(Br)c3n2)CCO1 [Example 68] , please?
415

Query (compound): Fc1cccc(-c2nnc(CNc3nc(N4C[C@H]5C[C@@H]4CO5)nc4c(Br)cnn34)[nH]2)c1 [Example 153] ; field requested: (IC50 CDK12 high ATP) to (Degradation DC50 CDK12) ratio
1143

Quick one: (IC50 CDK12 high ATP) to (Degradation DC50 CDK12) ratio of Cc1ccc2[nH]c(CNc3nc(N4CCN(C)CC4)nc4c(Br)cnn34)nc2c1 [Example 158] ?
8313

// returns reported (IC50 CDK12 high ATP) to (Degradation DC50 CDK12) ratio for input CN1CCN(c2nc(NCc3nc4c(F)c(F)ccc4[nH]3)n3ncc(Cl)c3n2)CC1 [Example 358]
2182

Item under review: Brc1cnn2c(NCc3nc4ccccc4[nH]3)nc(N3CCN4CCC[C@@H]4C3)nc12 [Example 149] . Reported (IC50 CDK12 high ATP) to (Degradation DC50 CDK12) ratio?
495

Fill in: (IC50 CDK12 high ATP) to (Degradation DC50 CDK12) ratio of CN1CCN(c2nc(NCc3nc4cc(Cl)c(Cl)cc4[nH]3)n3ncc(Br)c3n2)CC1 [Example 330] is ___
1601

meta.source: patent US20230117034A1
